- target desc: Opioid receptors; mu & kappa (Homo sapiens) (UniProt P41145+P35372)
- Sequence (P35372 whole entry, looked up): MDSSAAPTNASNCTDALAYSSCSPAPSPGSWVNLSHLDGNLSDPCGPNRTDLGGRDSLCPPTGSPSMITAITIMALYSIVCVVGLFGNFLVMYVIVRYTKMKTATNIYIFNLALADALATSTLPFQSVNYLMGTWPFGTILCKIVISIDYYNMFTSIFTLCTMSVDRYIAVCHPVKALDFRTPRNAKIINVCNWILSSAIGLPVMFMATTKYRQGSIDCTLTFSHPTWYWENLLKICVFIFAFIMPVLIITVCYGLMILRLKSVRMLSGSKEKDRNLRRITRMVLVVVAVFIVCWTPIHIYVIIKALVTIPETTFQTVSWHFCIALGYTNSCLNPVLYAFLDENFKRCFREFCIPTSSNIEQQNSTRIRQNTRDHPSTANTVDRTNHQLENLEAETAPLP
- Sequence (P41145 whole entry, looked up): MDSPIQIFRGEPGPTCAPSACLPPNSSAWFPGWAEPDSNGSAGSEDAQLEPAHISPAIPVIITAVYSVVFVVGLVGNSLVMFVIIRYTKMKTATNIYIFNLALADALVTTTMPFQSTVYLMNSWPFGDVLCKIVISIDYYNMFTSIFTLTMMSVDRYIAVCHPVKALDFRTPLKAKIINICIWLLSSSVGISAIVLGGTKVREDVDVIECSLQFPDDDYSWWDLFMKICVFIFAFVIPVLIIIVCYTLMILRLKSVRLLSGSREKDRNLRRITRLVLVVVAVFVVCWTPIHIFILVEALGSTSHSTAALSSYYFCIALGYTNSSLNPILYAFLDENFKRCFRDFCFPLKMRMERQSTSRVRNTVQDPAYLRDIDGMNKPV
- experimental details: Antagonistic activity at mu/kappa opioid receptor expressed in HEK293 cells co-transfected with chimeric G-protein delta 6-Gqi4-myr assessed as inhibition of DAMGO-induced calcium release at 1 uM
- Assay type: functional, cell-based
Active and inactive are the calls of the source. No cut-off for these calls is given here.
readout name: Activity

INSERT INTO assay_data (structure_smiles_string, readout_name, result) VALUES
  ('N=C(NCCCCNC(=O)CNC(=O)CNC(=O)CCC(=O)NCC(=O)NCC(=O)N[C@H]1C[C@@H]2Oc3c(O)ccc4c3[C@@]23CCN(CC2CC2)[C@H](C4)[C@]3(O)C1)Nc1ccc2[nH]c3c(c2c1)C[C@@]1(O)[C@H]2Cc4ccc(O)c5c4[C@@]1(CCN2CC1CC1)[C@H]3O5', 'Activity', 'Active'),
  ('N=C(NCCCCCNC(=O)CNC(=O)CNC(=O)CCC(=O)NCC(=O)NCC(=O)N[C@H]1C[C@@H]2Oc3c(O)ccc4c3[C@@]23CCN(CC2CC2)[C@H](C4)[C@]3(O)C1)Nc1ccc2[nH]c3c(c2c1)C[C@@]1(O)[C@H]2Cc4ccc(O)c5c4[C@@]1(CCN2CC1CC1)[C@H]3O5', 'Activity', 'Active'),
  ('N=C(NCCNC(=O)CNC(=O)CNC(=O)CCC(=O)NCC(=O)NCC(=O)N[C@H]1C[C@@H]2Oc3c(O)ccc4c3[C@@]23CCN(CC2CC2)[C@H](C4)[C@]3(O)C1)Nc1ccc2[nH]c3c(c2c1)C[C@@]1(O)[C@H]2Cc4ccc(O)c5c4[C@@]1(CCN2CC1CC1)[C@H]3O5', 'Activity', 'Active'),
  ('N=C(NCCCNC(=O)CNC(=O)CNC(=O)CCC(=O)NCC(=O)NCC(=O)N[C@H]1C[C@@H]2Oc3c(O)ccc4c3[C@@]23CCN(CC2CC2)[C@H](C4)[C@]3(O)C1)Nc1ccc2[nH]c3c(c2c1)C[C@@]1(O)[C@H]2Cc4ccc(O)c5c4[C@@]1(CCN2CC1CC1)[C@H]3O5', 'Activity', 'Active');
